Value source: patent US20250262201A1

Listed here are compounds together with their documented AC50.
molecular target: human PAH with the R408W mutation (Homo sapiens, UniProt P00439, R408W); construct: expressed in transfected cells; assay: Cell Based Phenylalanine Flux Assay; settings: A375 R408W cells, 24 hrs with compound, then 20 μM sepiapterin and 800 μM 13C9,15N-Phenylalanine for 4 hours; 13C-Tyrosine by LC-MS; average where tested multiple times; read-out: AC50
Sequence (P00439 whole entry R408W): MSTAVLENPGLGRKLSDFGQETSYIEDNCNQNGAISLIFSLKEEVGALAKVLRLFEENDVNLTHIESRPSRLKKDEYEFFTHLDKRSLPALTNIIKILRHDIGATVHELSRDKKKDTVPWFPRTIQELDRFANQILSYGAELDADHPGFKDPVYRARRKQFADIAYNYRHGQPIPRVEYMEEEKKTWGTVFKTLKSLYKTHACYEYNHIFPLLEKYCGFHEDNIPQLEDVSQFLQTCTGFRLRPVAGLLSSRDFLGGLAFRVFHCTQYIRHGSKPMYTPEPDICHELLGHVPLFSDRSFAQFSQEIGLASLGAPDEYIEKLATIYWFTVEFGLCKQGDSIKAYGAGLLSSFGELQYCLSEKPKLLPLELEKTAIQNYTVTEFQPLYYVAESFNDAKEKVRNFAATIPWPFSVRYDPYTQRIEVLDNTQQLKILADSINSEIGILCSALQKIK

Recorded results for 4 compounds are shown here.
{"COMPOUND": "O=C(CCc1ncco1)N1CCc2[nH]cnc2C1c1cn2ccccc2n1 (centres unmarked)", "AC50": "1 to 5 µM"}
{"COMPOUND": "Cc1nc(N(C)C)oc1C(=O)N1CCc2[nH]cnc2C1c1ccc2ccccc2n1 (centres unmarked)", "AC50": "1 to 5 µM"}
{"COMPOUND": "COCc1ncc(C(=O)N2CCc3[nH]cnc3C2c2cn3ccccc3n2)o1 (centres unmarked)", "AC50": "> 5 µM"}
{"COMPOUND": "O=C(c1cnco1)N1CCc2[nH]cnc2C1c1cc2ccccc2nn1 (centres unmarked)", "AC50": "1 to 5 µM"}

Here is the next item to consider.
Input line: Supply measured AC50 of CC(C)(O)c1ncc(C(=O)N2CCc3[nH]cnc3C2c2cc3ccccc3cn2)o1 (centres unmarked) in your reply.
Output line: 1 to 5 µM
